system: Rattus norvegicus; assay: Antiinflammatory activity in Sprague-Dawley rat assessed as protection against carrageenan-induced hind paw edema at 20 mg/kg, po administered 1 hr before carrageenan challenge measured after 2 hrs; assay type: functional
Please provide measured Activity for the entries that follow.

{"compound": "CC(=O)C(Sc1nc2nc3c(c(-c4ccc(Cl)cc4)c2c(=O)[nH]1)CCC/C3=C/c1ccc(Cl)cc1)C(C)=O", "assayedTarget": "Rattus norvegicus", "valueReported": "48.6%"}

Hey, can you go through the list below and give me Activity for every item?
1. CSc1nc2nc3c(c(-c4ccc(Cl)cc4)c2c(=O)[nH]1)CCC/C3=C/c1ccc(Cl)cc1
2. O=c1[nH]c(=S)[nH]c2c1C(c1ccc(Cl)cc1)C1=C(N2)/C(=C/c2ccc(Cl)cc2)CCC1 (centres undefined)

**A:**
1. 56.2%
2. 62%

**Q:** Query: Activity; subject: COc1ccc(NC2NC(SC)=Nc3nc4c(c(-c5ccc(Cl)cc5)c32)CCC/C4=C/c2ccc(Cl)cc2)cc1 (centres undefined)
**A:** 42.3%

Sourced from ChEMBL document CHEMBL1153848
